- TARGET_OF_ASSAY: T1, hIL-18Rα ECD-Fc fusion protein (human, UniProt Q13478 22-329)
- T1 construct: extracellular domain; captured on Protein A sensor
- T1 sequence (looked up): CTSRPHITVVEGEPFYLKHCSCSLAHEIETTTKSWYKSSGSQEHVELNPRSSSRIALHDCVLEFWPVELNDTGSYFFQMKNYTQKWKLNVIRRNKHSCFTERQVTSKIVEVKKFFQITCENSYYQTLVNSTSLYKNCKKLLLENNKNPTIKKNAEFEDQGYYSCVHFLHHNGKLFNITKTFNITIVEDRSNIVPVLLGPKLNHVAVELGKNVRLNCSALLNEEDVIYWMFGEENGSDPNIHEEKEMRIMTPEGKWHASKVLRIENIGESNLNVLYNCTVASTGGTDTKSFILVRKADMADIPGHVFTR
- TEST_NAME: BLI (Octet RED96), hIL-18Rα ECD-Fc on Protein A sensor
Measured koff, listed per entry.

- BINDER: "IL-18 variant polypeptide M28 (ligand) YFPKLASKLSVIRNLNDQVLFIDQGNRPLFEDMTDSDCRDNAPRTIFIISMYKWSGGRGMAVTISVKCEKISTLSCENKIISFKEMNPPDVIKDTKSDIIFFQYSVPGHDNKMQFESSSYEGYFLACEKERDLFKLILKKEDELGDRSIMFTVQNED"
  koff, s⁻¹: 0.00966
- BINDER: "IL-18 variant polypeptide M20 (ligand) YFPKLRSKLSVIRNLNDQVLFIDQGNRPLFEDMTDSDCRDNAPRTIFIISMYKSSRSRGMAVTISVKCEKISTLSCENKIISFKEMNPPDGIKDTKSDIIFFQSSVPGHDNKMQFESSSYEGYFLACEKERDLFKLILKKEDELGDRSIMFTVQNED"
  koff, s⁻¹: 0.0167
